These data points were gathered from paper PMC8201735.

ASSAY PROCEDURE: Plasma pharmacokinetics of remogliflozin etabonate and its metabolites during metformin treatment
Assay type: in vivo, human
CONDITION NOTES: human, plasma, oral, 750 mg, Day 1, after RE 750 mg BID + metformin, N = 17; read-out: AUC(0-tau), geometric mean (%CVb)
MEASURED QUANTITY: AUC
In your response, the unit should come after the numeric value.

Prompt: Which AUC value is on record for Cc1c(Cc2ccc(OC(C)C)cc2)c(O[C@@H]2O[C@H](CO)[C@@H](O)[C@H](O)[C@H]2O)nn1C(C)C ?
Completion: 8520 ng·h/mL

###

ASSAY PROCEDURE: Plasma pharmacokinetics of metformin with and without RE
Type: in vivo, human
CONDITION NOTES: human, plasma, oral, Metformin Cmax, geometric mean, Day 13 Metformin + RE 500 mg BID
MEASURED QUANTITY: Cmax (ng/mL)
// units = ng/mL; emit number, no label

Prompt: Which Cmax value is on record for CN(C)C(=N)N=C(N)N [Metformin, metformin, reference compound] ?
Completion: 2170

###

ASSAY PROCEDURE: Plasma pharmacokinetics of remogliflozin etabonate and its metabolites during metformin treatment
Assay type: in vivo, human
CONDITION NOTES: human, plasma, oral, 750 mg, Day 1, RE 750 mg BID + metformin, N = 17; read-out: AUC (0-last), geometric mean (%CVb)
MEASURED QUANTITY: AUC(0-t) (µg·h/mL)
// units = µg·h/mL; emit number, no label

Prompt: Which AUC(0-t) value is on record for CCOC(=O)OC[C@H]1O[C@@H](Oc2nn(C(C)C)c(C)c2Cc2ccc(OC(C)C)cc2)[C@H](O)[C@@H](O)[C@@H]1O [RE, remogliflozin etabonate] ?
Completion: 0.121

###

ASSAY PROCEDURE: Plasma pharmacokinetics of metformin with and without RE
Format: in vivo, human
CONDITION NOTES: human, plasma, oral, Metformin Cmax, geometric mean, Day -1 metformin alone; Metformin + RE 500 mg group
MEASURED QUANTITY: Cmax (ng/mL)
// units = ng/mL; emit number, no label

Prompt: Which Cmax value is on record for CN(C)C(=N)N=C(N)N [Metformin, metformin, reference compound] ?
Completion: 2160

###

ASSAY PROCEDURE: Plasma pharmacokinetics of metformin with and without RE
Format: in vivo, human
CONDITION NOTES: human, plasma, oral, Metformin AUC (0-tau), geometric mean, Day -1 metformin alone; Metformin + Placebo group
MEASURED QUANTITY: AUC (ng·h/mL)
// units = ng·h/mL; emit number, no label

Prompt: Which AUC value is on record for CN(C)C(=N)N=C(N)N [Metformin, metformin, reference compound] ?
Completion: 12300

###

ASSAY PROCEDURE: Plasma pharmacokinetics of metformin with and without RE
Type: in vivo, human
CONDITION NOTES: human, plasma, oral, Metformin AUC (0-tau), geometric mean, Day 13 Metformin + RE 750 mg BID
MEASURED QUANTITY: AUC (ng·h/mL)
// units = ng·h/mL; emit number, no label

Prompt: Which AUC value is on record for CN(C)C(=N)N=C(N)N [Metformin, metformin, reference compound] ?
Completion: 11400

###

ASSAY PROCEDURE: Plasma pharmacokinetics of remogliflozin etabonate and its metabolites during metformin treatment
Assay type: in vivo, human
CONDITION NOTES: human, plasma, oral, 750 mg, Day 13, RE 750 mg BID + metformin, N = 16; read-out: AUC (0-last), geometric mean (%CVb)
MEASURED QUANTITY: AUC(0-t)
In your response, the unit should come after the numeric value.

Prompt: Which AUC(0-t) value is on record for CCOC(=O)OC[C@H]1O[C@@H](Oc2nn(C(C)C)c(C)c2Cc2ccc(OC(C)C)cc2)[C@H](O)[C@@H](O)[C@@H]1O [RE, remogliflozin etabonate] ?
Completion: 121 ng·h/mL

###

ASSAY PROCEDURE: Plasma pharmacokinetics of metformin with and without RE
Type: in vivo, human
CONDITION NOTES: human, plasma, oral, Metformin AUC (0-tau), geometric mean, Day 13 Metformin + RE 500 mg BID
MEASURED QUANTITY: AUC

Prompt: Which AUC value is on record for CN(C)C(=N)N=C(N)N [Metformin, metformin, reference compound] ?
Completion: 14700 ng·h/mL

###

ASSAY PROCEDURE: Plasma pharmacokinetics of remogliflozin etabonate and its metabolites during metformin treatment
Assay type: in vivo, human
CONDITION NOTES: human, plasma, po, after concomitant oral administration of RE with metformin (discussion); read-out: Time of peak concentration (range)
MEASURED QUANTITY: Tmax

Prompt: Which Tmax value is on record for Cc1c(Cc2ccc(OC(C)C)cc2)c(O[C@@H]2O[C@H](CO)[C@@H](O)[C@H](O)[C@H]2O)nn1C(C)C ?
Completion: 0.5 to 4 h

###

Here, each record is paired with measured Cmax data.
ASSAY PROCEDURE: Plasma pharmacokinetics of remogliflozin etabonate and its metabolites during metformin treatment
Assay type: in vivo, human
CONDITION NOTES: human, plasma, oral, 500 mg, Day 1, after RE 500 mg BID + metformin, N = 16; read-out: Cmax, geometric mean (%CVb)

Cc1c(Cc2ccc(OC(C)C)cc2)c(O[C@@H]2O[C@H](CO)[C@@H](O)[C@H](O)[C@H]2O)nn1C(C)C
2000 ng/mL

Prompt: Which Cmax value is on record for CCOC(=O)OC[C@H]1O[C@@H](Oc2nn(C(C)C)c(C)c2Cc2ccc(OC(C)C)cc2)[C@H](O)[C@@H](O)[C@@H]1O [RE, remogliflozin etabonate] ?
Completion: 64.8 ng/mL

###

Here, each record is paired with measured Tmax data.
ASSAY PROCEDURE: Plasma pharmacokinetics of remogliflozin etabonate and its metabolites during metformin treatment
Format: in vivo, human
CONDITION NOTES: human, plasma, oral, 500 mg, Day 13, after RE 500 mg BID + metformin, N = 15; read-out: tmax, median (range)
// units = h; emit number, no label

CCOC(=O)OC[C@H]1O[C@@H](Oc2nn(C(C)C)c(C)c2Cc2ccc(OC(C)C)cc2)[C@H](O)[C@@H](O)[C@@H]1O [RE, remogliflozin etabonate]
0.5

Prompt: Which Tmax value is on record for Cc1c(Cc2ccc(OC(C)C)cc2)c(O[C@@H]2O[C@H](CO)[C@@H](O)[C@H](O)[C@H]2O)nn1C(C)C ?
Completion: 3

###

ASSAY PROCEDURE: Plasma pharmacokinetics of metformin with and without RE
Format: in vivo, human
CONDITION NOTES: human, plasma, oral, Metformin Cmax, geometric mean, Day -1 metformin alone; Metformin + Placebo group
Method: PK analysis was conducted by […] […] Geometric mean and % CVb (between-subject coefficient of variation) were calculated for all pharmacokinetic parameters except tmax. Comparisons of placebo with each active dose of RE were assessed in terms of change from baseline in fasting plasma lactate acid using repeated measures analysis of covariance model. […]
MEASURED QUANTITY: Cmax (ng/mL)
// units = ng/mL; emit number, no label

Prompt: Which Cmax value is on record for CN(C)C(=N)N=C(N)N [Metformin, metformin, reference compound] ?
Completion: 1970

###

ASSAY PROCEDURE: Plasma pharmacokinetics of remogliflozin etabonate and its metabolites during metformin treatment
Assay type: in vivo, human
CONDITION NOTES: human, plasma, oral, 500 mg, Day 13, RE 500 mg BID + metformin, N = 15; read-out: AUC (0-last), geometric mean (%CVb)
MEASURED QUANTITY: AUC(0-t) (ng·h/mL)
// units = ng·h/mL; emit number, no label

Prompt: Which AUC(0-t) value is on record for CCOC(=O)OC[C@H]1O[C@@H](Oc2nn(C(C)C)c(C)c2Cc2ccc(OC(C)C)cc2)[C@H](O)[C@@H](O)[C@@H]1O [RE, remogliflozin etabonate] ?
Completion: 73.5

###

ASSAY PROCEDURE: Plasma pharmacokinetics of remogliflozin etabonate and its metabolites during metformin treatment
Type: in vivo, human
CONDITION NOTES: human, plasma, oral, 750 mg, Day 1, after RE 750 mg BID + metformin, N = 17; read-out: tmax, median (range)
MEASURED QUANTITY: Tmax (min)
// units = min; emit number, no label

CCOC(=O)OC[C@H]1O[C@@H](Oc2nn(C(C)C)c(C)c2Cc2ccc(OC(C)C)cc2)[C@H](O)[C@@H](O)[C@@H]1O [RE, remogliflozin etabonate]
30

Next compound, Tmax to be filled in.
Prompt: Which Tmax value is on record for Cc1c(Cc2ccc(OC(C)C)cc2)c(O[C@@H]2O[C@H](CO)[C@@H](O)[C@H](O)[C@H]2O)nn1C(C)C ?
Completion: 45

###

ASSAY PROCEDURE: Plasma pharmacokinetics of remogliflozin etabonate and its metabolites during metformin treatment
Format: in vivo, human
CONDITION NOTES: human, plasma, oral, 500 mg, RE 500 mg group; read-out: Time of peak concentrations (range)
MEASURED QUANTITY: Tmax

Prompt: Which Tmax value is on record for Cc1c(Cc2ccc(OC(C)C)cc2)c(O[C@@H]2O[C@H](CO)[C@@H](O)[C@H](O)[C@H]2O)nn1C(C)C ?
Completion: 0.5 to 6 h
